Data credit: patent US20210196796A1

Target: T1, orthogonal hCD122 receptor (hoRb), hCD122 with H133D and Y134F (human, UniProt P14784 27-550)
T1 sequence: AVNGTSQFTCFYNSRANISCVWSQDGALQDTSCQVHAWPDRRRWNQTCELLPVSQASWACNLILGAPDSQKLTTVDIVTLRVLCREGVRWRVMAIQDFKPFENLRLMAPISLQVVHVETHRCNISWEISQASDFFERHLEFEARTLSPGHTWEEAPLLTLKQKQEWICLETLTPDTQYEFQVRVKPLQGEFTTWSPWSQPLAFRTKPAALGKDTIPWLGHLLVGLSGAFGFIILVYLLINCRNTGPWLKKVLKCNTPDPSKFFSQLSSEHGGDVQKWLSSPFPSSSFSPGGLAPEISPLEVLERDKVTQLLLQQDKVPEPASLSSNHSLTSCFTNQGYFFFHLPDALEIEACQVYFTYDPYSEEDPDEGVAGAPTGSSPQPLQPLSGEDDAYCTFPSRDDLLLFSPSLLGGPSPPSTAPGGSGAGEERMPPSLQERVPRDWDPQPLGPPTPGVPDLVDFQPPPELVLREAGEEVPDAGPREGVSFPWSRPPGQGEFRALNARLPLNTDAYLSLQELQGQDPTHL
Experiment: cell-based or functional assay
Experimental endpoint: NKL Ortho Proliferation Signal 1:50

The examples below pair each entry with its known result.
// query What value of NKL Ortho Proliferation Signal 1:50 has been reported for the following binder? SQVLRA (ligand) APTSSSTKKTQLQLSQLLVLLRAILNGINNYKNPKLTRMLTFKFYMPKKATELKHLQCLEEELKPLEEVLNLAQSKNFHLRPRDLISNINVIVLELKGSETTFMCEYADETATIVEFLNRWITFCQSIISTLT
// result 34300

// query What value of NKL Ortho Proliferation Signal 1:50 has been reported for the following binder? ΔT7, SQVLKA (ligand) APTSSSKKTQLQLSQLLVLLKAILNGINNYKNPKLTRMLTFKFYMPKKATELKHLQCLEEELKPLEEVLNLAQSKNFHLRPRDLISNINVIVLELKGSETTFMCEYADETATIVEFLNRWITFCQSIISTLT
// result 25300

// query What value of NKL Ortho Proliferation Signal 1:50 has been reported for the following binder? T3E, SQVLKA (ligand) APESSSTKKTQLQLSQLLVLLKAILNGINNYKNPKLTRMLTFKFYMPKKATELKHLQCLEEELKPLEEVLNLAQSKNFHLRPRDLISNINVIVLELKGSETTFMCEYADETATIVEFLNRWITFCQSIISTLT
// result 37400

// query What value of NKL Ortho Proliferation Signal 1:50 has been reported for the following binder? SQVLAA (ligand) APTSSSTKKTQLQLSQLLVLLAAILNGINNYKNPKLTRMLTFKFYMPKKATELKHLQCLEEELKPLEEVLNLAQSKNFHLRPRDLISNINVIVLELKGSETTFMCEYADETATIVEFLNRWITFCQSIISTLT
// result 9400

[I] L18D, SQVLKA (ligand) APTSSSTKKTQLQLSQLDVLLKAILNGINNYKNPKLTRMLTFKFYMPKKATELKHLQCLEEELKPLEEVLNLAQSKNFHLRPRDLISNINVIVLELKGSETTFMCEYADETATIVEFLNRWITFCQSIISTLT
[II] C125A, SQVLKA (ligand) APTSSSTKKTQLQLSQLLVLLKAILNGINNYKNPKLTRMLTFKFYMPKKATELKHLQCLEEELKPLEEVLNLAQSKNFHLRPRDLISNINVIVLELKGSETTFMCEYADETATIVEFLNRWITFAQSIISTLT
// query # return whichever of I and II has the smaller NKL Ortho Proliferation Signal 1:50 Lab log: write the label of the selected item as the result.
// result I
(I: 7460, II: 22800)
